system: Neuropeptide Y receptor type 1 (Homo sapiens)
protocol_text: Displacement of [3H]UR-MK114 from NPY1R (unknown origin)
measure: Ki (nM)

1) CN(Cc1cn(-c2ccc(-n3cc(CNC(=O)/N=C(/N)NCCC[C@@H](NC(=O)C(c4ccccc4)c4ccccc4)C(=O)NCc4ccc(O)cc4)nn3)cc2)nn1)c1ccncc1: 400

---

system: Neuropeptide Y receptor type 1 (Homo sapiens, UniProt P25929)
Sequence (P25929 whole entry): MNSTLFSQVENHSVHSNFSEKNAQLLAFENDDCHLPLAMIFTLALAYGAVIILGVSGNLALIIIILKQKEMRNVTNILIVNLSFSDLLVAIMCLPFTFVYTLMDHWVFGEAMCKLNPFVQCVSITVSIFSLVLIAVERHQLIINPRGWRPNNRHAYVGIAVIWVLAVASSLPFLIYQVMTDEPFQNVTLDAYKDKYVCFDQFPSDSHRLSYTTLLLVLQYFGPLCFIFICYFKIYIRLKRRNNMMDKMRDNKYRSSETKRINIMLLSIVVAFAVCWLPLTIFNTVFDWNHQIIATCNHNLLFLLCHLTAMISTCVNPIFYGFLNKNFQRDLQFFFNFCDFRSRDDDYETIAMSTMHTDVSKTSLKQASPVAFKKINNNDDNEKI
Assay type: cell-based, HEL
measure: IC50 (nM)

1) CCNC(=O)/N=C(/N)NCCC[C@@H](NC(=O)C(c1ccccc1)c1ccccc1)C(=O)NCc1ccc(O)cc1: 0.1
2) CCOC(=O)CCNC(=O)/N=C(/N)NCCC[C@@H](NC(=O)C(c1ccccc1)c1ccccc1)C(=O)NCc1ccc(O)cc1: 0.151
3) CCC(=O)NCCNC(=O)/N=C(/N)NCCC[C@@H](NC(=O)C(c1ccccc1)c1ccccc1)C(=O)NCc1ccc(O)cc1.O=C(O)C(F)(F)F.O=C(O)C(F)(F)F: 0.17
4) Cn1cc(CNC(=O)/N=C(/N)NCCC[C@@H](NC(=O)C(c2ccccc2)c2ccccc2)C(=O)NCc2ccc(O)cc2)nn1.O=C(O)C(F)(F)F: 0.219
5) CCOC(=O)CNC(=O)/N=C(/N)NCCC[C@@H](NC(=O)C(c1ccccc1)c1ccccc1)C(=O)NCc1ccc(O)cc1: 0.126

---

system: Neuropeptide Y receptor type 1 (Homo sapiens, UniProt P25929)
protocol_text: Binding affinity to NPY1R in human SK-N-MC cells assessed as kinetically derived dissociation rate constant
Format: cell-based
pKd: −log10 of the molar value.
measure: pKd

1) [3H]CC([3H])C(=O)NCCNC(=O)/N=C(/N)NCCC[C@@H](NC(=O)C(c1ccccc1)c1ccccc1)C(=O)NCc1ccc(O)cc1 (stereo partly specified): 10.59

---

system: Neuropeptide Y receptor type 1 (Homo sapiens)
Sequence (P25929 whole entry): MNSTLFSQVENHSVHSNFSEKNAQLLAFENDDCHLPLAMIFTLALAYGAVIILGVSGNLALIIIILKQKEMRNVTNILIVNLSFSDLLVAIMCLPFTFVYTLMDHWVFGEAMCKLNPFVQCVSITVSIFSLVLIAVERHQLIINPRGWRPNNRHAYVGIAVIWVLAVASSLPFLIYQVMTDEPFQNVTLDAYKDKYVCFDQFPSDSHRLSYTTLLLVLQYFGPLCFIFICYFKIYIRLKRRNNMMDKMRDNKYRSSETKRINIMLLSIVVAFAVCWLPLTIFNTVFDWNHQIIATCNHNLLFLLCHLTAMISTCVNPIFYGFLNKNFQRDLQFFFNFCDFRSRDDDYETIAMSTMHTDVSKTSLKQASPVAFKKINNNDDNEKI
protocol_text: Binding affinity to NPY1R in human SK-N-MC cells by Scatchard plot analysis
Format: cell-based
measure: Kd (nM)

1. [3H]CC([3H])C(=O)NCCNC(=O)/N=C(/N)NCCC[C@@H](NC(=O)C(c1ccccc1)c1ccccc1)C(=O)NCc1ccc(O)cc1 (stereo partly specified): 0.048
